Assay: Human HepG2 cell viability assay in 384 well format
Format: toxicity, cell-based
Design: dose 125 nL, time 70.5 hour; concentration not given beside the values
Details: HepG2 cells, read-out: Inhibition
PROPERTY_NAME: cytotoxicity at 70.5 h (%)
# unit: % | format: bare number

Here is how some molecules turned out for cytotoxicity at 70.5 h.
Lookup: Give its cytotoxicity at 70.5 h value. Item: `CC1CCN(C(=O)CSc2nc3c(cnn3CCO)c(=O)[nH]2)CC1`
Found: 22.7

Lookup: Give its cytotoxicity at 70.5 h value. Item: `COc1cccc(CN(C)Cc2cccc(C#N)c2)c1OC`
Found: -3.83

Lookup: Give its cytotoxicity at 70.5 h value. Item: `Cc1n[nH]/c(=N\C(=O)c2c3c(nc4onc(C)c24)CCC3)s1`
Found: -13.7

Continuing:
Lookup: Give its cytotoxicity at 70.5 h value. Item: `Cn1ccnc1-c1cnn(CC(=O)Nc2ccnn2C)c1`
Found: -3

Lookup: Give its cytotoxicity at 70.5 h value. Item: c1nc(N2CCCCC2Cn2cncn2)c2ccsc2n1 (stereo not drawn)
Found: 14.7

Lookup: Give its cytotoxicity at 70.5 h value. Item: Cc1cnn(CC2CCCCN2C(=O)c2nccnc2N)c1 (stereo not drawn)
Found: -4.52

###

Assay: Human HepG2 cell viability assay in 384 well format
Assay type: toxicity, cell-based
Design: dose 125 nL, time 70.5 hour; concentration not given beside the values
Conditions: HepG2 cells, read-out: Inhibition
The following molecules are shown together with reported cytotoxicity at 70.5 h values.
# unit: % | format: bare number

Here is how some molecules turned out for cytotoxicity at 70.5 h.
Lookup: Give its cytotoxicity at 70.5 h value. Item: Cc1nnc(C(C)Nc2cccc(COCC(F)(F)C(F)F)c2)o1 (stereo unspecified)
Found: 24.9

Lookup: Give its cytotoxicity at 70.5 h value. Item: CC1CCN(C(=O)C2CCN(S(C)(=O)=O)CC2)c2ccccc21 (stereo unspecified)
Found: -7.57

Lookup: Give its cytotoxicity at 70.5 h value. Item: `CCc1ccc(CN2CCC3(CC2)CN(c2cnn(C)c2)C(=O)CO3)o1`
Found: -8.17

Lookup: Give its cytotoxicity at 70.5 h value. Item: NC(CNS(=O)(=O)Cc1cccc2cccnc12)c1ccccc1 (stereo unspecified)
Found: 28.4

Lookup: Give its cytotoxicity at 70.5 h value. Item: `COc1cc(CNC(=O)c2cc(S(C)(=O)=O)ccc2C)ccn1`
Found: -10.5

Now for the molecule whose cytotoxicity at 70.5 h we want.
Lookup: Give its cytotoxicity at 70.5 h value. Item: `CCCc1nc(NC2(COC)CCCC2)c2cnn(C)c2n1`
Found: -4.69

###

Experiment: Human HepG2 cell viability assay in 384 well format
Format: toxicity, cell-based
Design: dose 125 nL, time 70.5 hour; concentration not given beside the values
Conditions: HepG2 cells, read-out: Inhibition
PROPERTY_NAME: cytotoxicity at 70.5 h (%)
# unit: % | format: bare number

Lookup: Give its cytotoxicity at 70.5 h value. Item: O=C(Cn1ccnc1)N1CCCC(OCc2cccnc2)C1 (stereo unspecified)
Found: 29.5

Continuing:
Lookup: Give its cytotoxicity at 70.5 h value. Item: OC(CN1CCN(CC2CC2)CC1)c1ccc(Br)cc1 (stereo unspecified)
Found: -2.6

Lookup: Give its cytotoxicity at 70.5 h value. Item: COc1ccc(C2Nc3cc(Cl)ccc3C3=NCCN32)cc1CO (stereo unspecified)
Found: 9.73

Lookup: Give its cytotoxicity at 70.5 h value. Item: `CC(C)c1nnc2n1CCN(C(=O)c1ccc3c(c1)CCC3)C2`
Found: 0.826

Lookup: Give its cytotoxicity at 70.5 h value. Item: `CC(C)NC(=O)C1CCN(Cn2ccc(-c3ccc(F)cc3)n2)CC1`
Found: 4

Lookup: Give its cytotoxicity at 70.5 h value. Item: `COC[C@@]12CCC[C@@H]1CN(C(=O)Cc1ccco1)C2`
Found: -5.39

###

The following molecules are shown together with reported cytotoxicity at 70.5 h values.
Assay: Human HepG2 cell viability assay in 384 well format
Format: toxicity, cell-based
Set-up: dose 125 nL, time 70.5 hour; concentration not given beside the values
Conditions: HepG2 cells, read-out: Inhibition
Provide a numeric answer, followed by its unit.

Here is how some molecules turned out for cytotoxicity at 70.5 h.
Lookup: Give its cytotoxicity at 70.5 h value. Item: `O=C1[C@H]2CN(S(=O)(=O)C3CC3)C[C@H]2CN1Cc1cccnc1`
Found: -8.9%

Lookup: Give its cytotoxicity at 70.5 h value. Item: `CN1C(=O)COc2ccc(C(=O)Cn3cnc4ccsc4c3=O)cc21`
Found: 17.1%

Lookup: Give its cytotoxicity at 70.5 h value. Item: CC(NC(=O)CCC(=O)c1cccs1)c1nnc2n1CCC2 (stereo unspecified)
Found: -3.09%

Lookup: Give its cytotoxicity at 70.5 h value. Item: `Fc1cccc(-c2n[nH]cc2-c2nc(CN3CCOCC3)no2)c1`
Found: 15.5%

Lookup: Give its cytotoxicity at 70.5 h value. Item: `COCCS(=O)(=O)Nc1cc(Cl)ccn1`
Found: 14.3%

Lookup: Give its cytotoxicity at 70.5 h value. Item: `Cc1nn(-c2cc(Cl)cc(Cl)c2)c(C)c1CCC(=O)O`
Found: -5.45%

Now for the molecule whose cytotoxicity at 70.5 h we want.
Lookup: Give its cytotoxicity at 70.5 h value. Item: Cn1cnnc1C1CCCN(c2nc3ccccc3o2)C1 (stereo unspecified)
Found: 0.708%

###

Assay: Human HepG2 cell viability assay in 384 well format
Assay type: toxicity, cell-based
Parameters: dose 125 nL, time 70.5 hour; concentration not given beside the values
Details: HepG2 cells, read-out: Inhibition
The following compounds are shown together with reported cytotoxicity at 70.5 h values.

Here is how some compounds turned out for cytotoxicity at 70.5 h.
Lookup: Give its cytotoxicity at 70.5 h value. Item: `CCSc1nnc(CCNC(=O)OC(C)(C)C)o1`
Found: 13%

Lookup: Give its cytotoxicity at 70.5 h value. Item: `CCCNC(=O)[C@@H]1CCCN1[C@@H](C(=O)NC)C1CC1`
Found: -11.8%

Lookup: Give its cytotoxicity at 70.5 h value. Item: `Cc1nc(C(=O)N2CCN(C(=O)N(C)C)[C@@H]3CS(=O)(=O)C[C@@H]32)cs1`
Found: -5.31%

Lookup: Give its cytotoxicity at 70.5 h value. Item: `CCN(CCO)C[C@@H]1CN(C(=O)c2sc3ccccc3c2C)C[C@@H]1CO`
Found: 8.11%

Lookup: Give its cytotoxicity at 70.5 h value. Item: CCc1csc(C2CCCN(C(=O)c3c[nH]c(C)n3)C2)n1 (stereo unspecified)
Found: -12%

Continuing:
Lookup: Give its cytotoxicity at 70.5 h value. Item: Cc1nnc(C(C)N2CCc3[nH]c4ccc(Cl)cc4c3C2)o1 (stereo unspecified)
Found: -4.39%

###

The following molecules are shown together with reported cytotoxicity at 70.5 h values.
Experiment: Human HepG2 cell viability assay in 384 well format
Assay type: toxicity, cell-based
Parameters: dose 125 nL, time 70.5 hour; concentration not given beside the values
Details: HepG2 cells, read-out: Inhibition
# unit: % | format: bare number

Here is how some molecules turned out for cytotoxicity at 70.5 h.
Lookup: Give its cytotoxicity at 70.5 h value. Item: `CCCNC(=O)CCNC(=O)Cc1nc(-c2ccco2)oc1C`
Found: -4.05

Lookup: Give its cytotoxicity at 70.5 h value. Item: CN1CCCCC1c1ncc2c(n1)CCN(Cc1ccc(F)cc1)C2 (stereo unspecified)
Found: -5.99

Now for the molecule whose cytotoxicity at 70.5 h we want.
Lookup: Give its cytotoxicity at 70.5 h value. Item: `CCn1cc(NC(=O)NCCN2CCCCCC2=O)cn1`
Found: -6.34

###

Assay: Human HepG2 cell viability assay in 384 well format
Assay type: toxicity, cell-based
Parameters: dose 125 nL, time 70.5 hour; concentration not given beside the values
Conditions: HepG2 cells, read-out: Inhibition
PROPERTY_NAME: cytotoxicity at 70.5 h (%)
# unit: % | format: bare number

Lookup: Give its cytotoxicity at 70.5 h value. Item: `O=C(c1ccoc1)N1CCc2c(COCC3CC3)cncc2C1`
Found: 14.9

Lookup: Give its cytotoxicity at 70.5 h value. Item: O=S(=O)(C1CC1)N1CCOC2(CCCN(Cc3ccccn3)C2)C1 (stereo not given)
Found: -5.41

Lookup: Give its cytotoxicity at 70.5 h value. Item: Cc1cc(C)n(CC2CCCN2C(=O)Cc2c(C)noc2C)n1 (stereo not given)
Found: 7.13

Lookup: Give its cytotoxicity at 70.5 h value. Item: `Cc1cc(CN2CCN(S(=O)(=O)c3c(C)c(Cl)cc(C)c3Cl)CC2)on1`
Found: -9.59

Lookup: Give its cytotoxicity at 70.5 h value. Item: `CN(Cc1cccc(F)c1)S(=O)(=O)N1CCOCC1`
Found: -3.2

Lookup: Give its cytotoxicity at 70.5 h value. Item: `c1ccc2c(c1)COC1(CCCC1)N2`
Found: 22.7

Lookup: Give its cytotoxicity at 70.5 h value. Item: `Cc1ccc(N2CCc3ncnc(N(C)C)c3CC2)nn1`
Found: -6.25

Lookup: Give its cytotoxicity at 70.5 h value. Item: CS(=O)(=O)c1cncnc1C1CCCN(C(=O)Nc2ccccc2F)C1 (stereo not given)
Found: -11.6

Lookup: Give its cytotoxicity at 70.5 h value. Item: Cc1cc(NC(=O)NCC(C(C)C)N2CCOCC2)n(C)n1 (stereo not given)
Found: -6.55

Lookup: Give its cytotoxicity at 70.5 h value. Item: `Cn1cnc2c1CCN(Cc1ccc(C(=O)N3CCCC3)cc1)C2`
Found: -3.6

Continuing:
Lookup: Give its cytotoxicity at 70.5 h value. Item: CSc1nccc(NCC2CNCCO2)n1 (stereo not given)
Found: -5.51

Lookup: Give its cytotoxicity at 70.5 h value. Item: `Cc1ncc(CN2CCC(n3cc(-c4ccc(F)cc4)nn3)CC2)cn1`
Found: -2.17

Lookup: Give its cytotoxicity at 70.5 h value. Item: CCCN(CCO)C(=O)C1CCC(=O)N(Cc2ccc(Cl)cc2)C1 (stereo not given)
Found: -0.953
